test system: P. falciparum stage V gametocytes; parameters: BacTiter-Glo ATP luminescence viability of purified stage V gametocytes in 384-well plates, per cent inhibition versus DMSO; conditions: 48 h, 5 µM; inhibitor
Out of some 13,000 compounds screened, about 3,200 (25%) showed an effect of 50% or more. This is one part of the list.
Rule: satisfied for % Inhibition not less than 30%, not satisfied for anything less.

These solved cases illustrate the format of a correct answer.
O=c1c2ccccc2nc(/C=C/c2ccc([N+](=O)[O-])cc2)n1-c1ccccn1 [TCMDC-125664] | satisfied
O=C(NCc1cccc(C(F)(F)F)c1)[C@@H]1CCCN1C(=O)c1ccc(O)c(-c2ccc(Cl)c(Cl)c2)c1 [TCMDC-140832] | satisfied
CC(=O)Nc1nc(C(=O)Nc2ccc(-c3cccc(-c4nc5ccc(F)cc5[nH]4)c3)cc2)cs1 [TCMDC-137122] | not satisfied
CCOC(=O)NOC(C(=O)O)c1ccccc1 (stereo not shown) [TCMDC-131406] | not satisfied
Nc1c2ccccc2nc2cc([N+](=O)[O-])ccc12 [TCMDC-132031] | satisfied
O=C(Nc1ccc(-c2nc3ccccc3[nH]2)cc1)c1cccc([N+](=O)[O-])c1 [TCMDC-123637] | not satisfied
NC[C@H](CC1CCCCC1)NC(=O)c1ccc(-c2ccnc3[nH]ccc23)s1 [TCMDC-134150] | satisfied
CS(=O)(=O)N(c1ccccc1)c1cc(C(=O)N[C@@H](Cc2ccccc2)[C@H](O)CNC2CC2)cc(N2CCCC2=O)c1 [TCMDC-138891] | not satisfied

-- ask Does the compound CS(=O)(=O)N(c1ccccc1)c1cc(C(=O)N[C@@H](Cc2ccccc2)[C@H](O)CNC2CCCCC2)cc(N2CCCC2=O)c1 [TCMDC-138850] have recorded % Inhibition that is 30% or more?
-- reply not satisfied

-- ask Would you mind doing CCN(CC)c1nc(N)c2c(N)nc3c(c2c1C#N)C(=O)CN3Cc1ccccc1 [TCMDC-125024] as well?
-- reply satisfied

-- ask Another compound to look at: CC(C)CCCC(C)NC[C@@H](O)[C@H](Cc1ccccc1)NC(=O)c1cc(N2CCCC2=O)cc(N(c2ccccc2)S(C)(=O)=O)c1 (stereo partly shown) [TCMDC-138851]
-- reply satisfied

-- ask Entry CN1CCN(CCCN(Cc2cccc(-c3ccc(CNCc4ccc5c(c4)OCO5)cc3)c2)C(=O)CCC2CCCC2)CC1 [TCMDC-140557] please
-- reply satisfied

-- ask Also CC1(C)N=C(N)N=C(N)N1OCCNCc1ccc(Cl)cc1 [TCMDC-131628] ?
-- reply not satisfied

-- ask Then this compound: CCN(CC)c1nc(-c2ccccc2)cc(-c2ccccc2)c1C#N [TCMDC-125830]
-- reply not satisfied

-- ask And Cc1ccc(NC(=O)c2ccc3ncccc3c2)cc1OC1CCN(CCC(C)C)CC1 [TCMDC-133975] ?
-- reply satisfied

====

test system: P. falciparum stage V gametocytes; design: BacTiter-Glo ATP luminescence viability of purified stage V gametocytes in 384-well plates, per cent inhibition versus DMSO; settings: 48 h, 5 µM; inhibitor
Screen size: about 13,000 compounds; about 3,200 (25%) showed an effect of 50% or more. The list shows a part of the results.
Each record gets a class by % Inhibition: bottom bin (below -20%), middle bin (-20% to below 30%), top bin (30% or more)

Answered cases to consult:
COc1ccc(C2CCN(CCN3CCC(NC(=O)c4ccc(-c5cccc(C(F)(F)F)c5C(F)(F)F)cc4)CC3)CC2)c(OC)c1 [TCMDC-135427] | bottom bin
O=C(c1cc(C(=O)Nc2ccccc2F)c(=O)n(-c2ccccc2F)c1)c1cc(Cl)ccc1O [TCMDC-123625] | top bin
COc1ccc2c(=O)ccn(CCN3CCC(NCc4ccc5c(n4)NC(=O)CS5)CC3)c2c1 [TCMDC-141809] | bottom bin
O=C(c1cccs1)N1CCN(c2ccc([N+](=O)[O-])c(NC3CC3)c2)CC1 [TCMDC-123877] | top bin
CSc1ccc(NC(=O)Nc2cc(C)nc3ccccc23)cc1Br [TCMDC-139874] | bottom bin

-- ask Would you mind sorting CC(C)(C)C(=O)N1CCN(c2ccc([N+](=O)[O-])c(NC3CC3)c2)CC1 [TCMDC-123687] into the appropriate category?
-- reply top bin

-- ask # iterate: CS(=O)(=O)NCCCNCc1cccc(-c2cccc(-c3nc4cc(C(F)(F)F)ccc4[nH]3)c2)c1.O=C(O)C(F)(F)F [TCMDC-133086]
-- reply middle bin

-- ask Then O=C(CN1CCCC1)Nc1cccc(C(=O)Nc2cccc(C(F)(F)F)c2)c1 [TCMDC-124512] ?
-- reply top bin

-- ask And what about the molecule C#CC[C@@H](NC(N)=O)C(=O)O [TCMDC-131404] ?
-- reply middle bin

-- ask Subsequent entry: O=C(Nc1cccc(C(F)(F)F)c1)c1cccc(S(=O)(=O)NCC2CCCN2CC2CCCCC2)c1 (stereo not drawn) [TCMDC-133687]
-- reply bottom bin

-- ask Also Cc1cc(-c2ccc(NC(=O)Nc3ccc4nccc(N5CCN(C)CC5)c4c3)cc2C)cc(C)n1 [TCMDC-139355] , if possible.
-- reply middle bin

-- ask And the next one, O=C(Nc1ccc(S(=O)(=O)NCCCN2CCOCC2)cc1)c1cc(-c2ccccc2)n[nH]1 [TCMDC-125046] ?
-- reply bottom bin

-- ask Next: CC(C)NCC(=O)Nc1cccc(C(=O)Nc2cccc(C(F)(F)F)c2)c1 [TCMDC-124878]
-- reply top bin

-- ask Also check O=C(c1cc(C(=O)Nc2ccc(F)cc2)c(=O)n(-c2ccc(F)cc2)c1)c1cc(Cl)ccc1O [TCMDC-123626]
-- reply middle bin

-- ask How about this molecule: COc1ccc(CN2CCN(C(=O)c3cccs3)CC2)c(O)c1 [TCMDC-139298]
-- reply middle bin

-- ask Quick one: CCCc1c(C(=O)OCC)c2cc(O)ccc2n1-c1ccc(OC)cc1 [TCMDC-125126]
-- reply bottom bin

-- ask Try the molecule CC1CCCC(C)N1C[C@@H](O)CNS(=O)(=O)c1cccc(C(F)(F)F)c1 (stereo partly drawn) [TCMDC-134258]
-- reply middle bin

-- ask Another molecule: Cc1cc(N2CCN(C(=O)OC(C)(C)C)CC2)ccc1N [TCMDC-125886]
-- reply bottom bin

-- ask Okay, and COc1ccccc1C(C)NCC(=O)Nc1cccc(C(=O)Nc2cccc(C(F)(F)F)c2)c1 (stereo not drawn) [TCMDC-124871] ?
-- reply top bin

-- ask Now consider O=C(NC1CCN(c2ccc(F)cc2[N+](=O)[O-])CC1)c1cccs1 [TCMDC-133786] and answer again.
-- reply middle bin

-- ask Item: O=C1COC2(CN1C1CCN(Cc3ccc(O)c(Cl)c3)C1)c1ccccc1-c1ccccc12 (stereo not drawn) [TCMDC-136342]
-- reply middle bin

-- ask Can you handle CC12CCC(=O)N1C(C(=O)Nc1cccc(C(=O)Nc3cccc(C(F)(F)F)c3)c1)CS2 (stereo not drawn) [TCMDC-125019] next?
-- reply top bin

Ref: paper PMC4552634
